Tested on: 556581-035-R-J1 tumor spheroid viability, % test/control
Protocol Text: Anticancer human tumor 556581-035-R-J1 patient-derived ovarian carcinoma cell line growth inhibition
Experimental Conditions: second compound 0.000949 µM; first compound 3 µM; stronger effect = lower value; spheroids with HUVEC and MSC
Property Label: viability, T/C

1. Cc1sc2c(c1C)C(c1ccc(Cl)cc1)=NC(CC(=O)Nc1ccc(O)cc1)c1nnc(C)n1-2 (centres undefined) + COc1cc2c(cc1O)CCNC21CSC2c3c(OC(C)=O)c(C)c4c(c3C(COC1=O)N1C(O)C3Cc5cc(C)c(OC)c(O)c5C(C21)N3C)OCO4; 0.31%
2. Cn1ncnc1[C@H]1c2n[nH]c(=O)c3cc(F)cc(c23)N[C@@H]1c1ccc(F)cc1 + COc1cc2c(cc1O)CCNC21CSC2c3c(OC(C)=O)c(C)c4c(c3C(COC1=O)N1C(O)C3Cc5cc(C)c(OC)c(O)c5C(C21)N3C)OCO4; 1.54%
3. CNCc1ccc(-c2cc(-c3nc(-c4ccc(S(=O)(=O)C(C)C)cc4)cnc3N)on2)cc1 + COc1cc2c(cc1O)CCNC21CSC2c3c(OC(C)=O)c(C)c4c(c3C(COC1=O)N1C(O)C3Cc5cc(C)c(OC)c(O)c5C(C21)N3C)OCO4; 0.33%
4. O=C(c1cc(Cc2n[nH]c(=O)c3ccccc23)ccc1F)N1CCN(C(=O)C2CC2)CC1 + COc1cc2c(cc1O)CCNC21CSC2c3c(OC(C)=O)c(C)c4c(c3C(COC1=O)N1C(O)C3Cc5cc(C)c(OC)c(O)c5C(C21)N3C)OCO4; 23.4%

----------
Tested on: 556581-035-R-J1 tumor spheroid viability, % test/control
Protocol Text: Anticancer human tumor 556581-035-R-J1 cell line growth inhibition;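 further: spheroids exposed to compounds for 7 days before viability read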
Experimental Conditions: second compound 0.03 µM; first compound 0.949 µM; stronger effect = lower value; spheroids with HUVEC and MSC
Property Label: viability, T/C (%)

1. CNCc1ccc(-c2cc(-c3nc(-c4ccc(S(=O)(=O)C(C)C)cc4)cnc3N)on2)cc1 + CC[C@@]1(O)C(=O)OCc2c1cc1n(c2=O)Cc2cc3c(CN(C)C)c(O)ccc3nc2-1; 47.8
2. Cc1sc2c(c1C)C(c1ccc(Cl)cc1)=NC(CC(=O)Nc1ccc(O)cc1)c1nnc(C)n1-2 (centres undefined) + CC[C@@]1(O)C(=O)OCc2c1cc1n(c2=O)Cc2cc3c(CN(C)C)c(O)ccc3nc2-1; 65.6
3. Cn1ncnc1[C@H]1c2n[nH]c(=O)c3cc(F)cc(c23)N[C@@H]1c1ccc(F)cc1 + CC[C@@]1(O)C(=O)OCc2c1cc1n(c2=O)Cc2cc3c(CN(C)C)c(O)ccc3nc2-1; 52.9
4. O=C(c1cc(Cc2n[nH]c(=O)c3ccccc23)ccc1F)N1CCN(C(=O)C2CC2)CC1 + CC[C@@]1(O)C(=O)OCc2c1cc1n(c2=O)Cc2cc3c(CN(C)C)c(O)ccc3nc2-1; 75.7

----------
System: 556581-035-R-J1 tumor spheroid viability, % test/control
Protocol Text: Anticancer human tumor 556581-035-R-J1 cell line growth inhibition;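 further: spheroids exposed to compounds for 7 days before viability read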
Experimental Conditions: second compound 1 µM; first compound 0.0949 µM; stronger effect = lower value; spheroids with HUVEC and MSC
Property Label: viability, T/C (%)

1. Cc1sc2c(c1C)C(c1ccc(Cl)cc1)=NC(CC(=O)Nc1ccc(O)cc1)c1nnc(C)n1-2 (centres undefined) + Cn1nnc2c(C(N)=O)ncn2c1=O; 82
2. O=C(c1cc(Cc2n[nH]c(=O)c3ccccc23)ccc1F)N1CCN(C(=O)C2CC2)CC1 + Cn1nnc2c(C(N)=O)ncn2c1=O; 99
3. Cn1ncnc1[C@H]1c2n[nH]c(=O)c3cc(F)cc(c23)N[C@@H]1c1ccc(F)cc1 + Cn1nnc2c(C(N)=O)ncn2c1=O; 87.3
4. CNCc1ccc(-c2cc(-c3nc(-c4ccc(S(=O)(=O)C(C)C)cc4)cnc3N)on2)cc1 + Cn1nnc2c(C(N)=O)ncn2c1=O; 109
